Target: protein-protein interaction between Kras and SOS1 (biotin-tagged human Kras loaded with GDP, His-tagged human SOS1) (Homo sapiens (Human), UniProt P01116, G12D)
Assay: Protein-protein interaction inhibition between Kras and SOS1 (KrasG12D-SOS PPI) using AlphaScreen
Type: biochemical
Conditions: AlphaScreen; biotin-tagged human Kras loaded with GDP, His-tagged human SOS1; read-out: KRAS G12D-SOS PPI IC50
Numbered stars: 1 amine (or outer) side, 2 acyl side, 3 side chain; on linkers, the order of the positions; unused ones are H or OH. Square brackets hold non-standard residues; d marks the D form. Peptide text beside a SMILES is read from it. hPhe(3,5-F2-4-CF3) = N[C@@H](CCc1cc(F)c(C(F)(F)F)c(F)c1)C(=O)O; hPhe(3-Cl-4-CF3) = N[C@@H](CCc1ccc(C(F)(F)F)c(Cl)c1)C(=O)O; NEtPhe(4-CF3) = CCN[C@@H](Cc1ccc(C(F)(F)F)cc1)C(=O)O; NMePhe(4-CF3) = CN[C@@H](Cc1ccc(C(F)(F)F)cc1)C(=O)O; NMedβ3hAla = C[C@H](CC(=O)[*:2])N(C)[*:1]; Hyp = O=C(O)[C@@H]1C[C@@H](O)CN1; NMeChg = CN[C@H](C(=O)O)C1CCCCC1; NMeI = CC[C@H](C)[C@H](NC)C(=O)O; NMeL = CN[C@@H](CC(C)C)C(=O)O; NMeA = CN[C@@H](C)C(=O)O; Ac5c = NC1(C(=O)O)CCCC1; Aze = O=C(O)[C@@H]1CCN1; Ac4c = NC1(C(=O)O)CCC1; Sar = CNCC(=O)O
QUANTITY MEASURED: IC50 (nM)
Entry rule: numbers only, all in nM.

Which value of IC50 has been reported for CCO[C@@H]1C[C@H]2C(=O)NC3(CCCC3)C(=O)N(C)[C@@H](C3CCCCC3)C(=O)N(C)[C@H](C)CC(=O)N(C)[C@@H](CC(C)C)C(=O)N[C@@H]([C@@H](C)CC)C(=O)N(C)[C@@H](C)C(=O)N3CC[C@H]3C(=O)N(C)[C@@H](Cc3ccc(C(F)(F)F)cc3)C(=O)N(C)CC(=O)N[C@@H](CCc3ccc(C(F)(F)F)c(Cl)c3)C(=O)N2C1 [Compound 652] (cyclo([Ac5c][NMeChg][NMedβ3hAla][NMeL]I[NMeA][Aze][NMePhe(4-CF3)][Sar][hPhe(3-Cl-4-CF3)][Hyp](Et))) in the records?
4.3

Check CCO[C@@H]1C[C@H]2C(=O)NC3(CCC3)C(=O)N(C)[C@@H]([C@@H](C)CC)C(=O)N(C)[C@H](C)CC(=O)N(C)[C@@H](CC(C)C)C(=O)N[C@@H]([C@@H](C)CC)C(=O)N(C)[C@@H](C)C(=O)N3CC[C@H]3C(=O)N(CC)[C@@H](Cc3ccc(C(F)(F)F)cc3)C(=O)N(C)CC(=O)N[C@@H](CCc3cc(F)c(C(F)(F)F)c(F)c3)C(=O)N2C1 [Compound 731] (cyclo([Ac4c][NMeI][NMedβ3hAla][NMeL]I[NMeA][Aze][NEtPhe(4-CF3)][Sar][hPhe(3,5-F2-4-CF3)][Hyp](Et))) too.
3.5

----------
Would you mind telling me the reported IC50 of each entry?
Target: protein-protein interaction between Kras and SOS1 (biotin-tagged human Kras loaded with GDP, His-tagged human SOS1) (Homo sapiens (Human), UniProt P01116, G12D)
Test: Protein-protein interaction inhibition between Kras and SOS1 (KrasG12D-SOS PPI) using AlphaScreen
Type: biochemical
Settings: AlphaScreen; biotin-tagged human Kras loaded with GDP, His-tagged human SOS1; read-out: KRAS G12D-SOS PPI IC50
Numbered stars: 1 amine (or outer) side, 2 acyl side, 3 side chain; on linkers, the order of the positions; unused ones are H or OH. Square brackets hold non-standard residues; d marks the D form. Peptide text beside a SMILES is read from it. hPhe(3-Cl-4-CF3) = N[C@@H](CCc1ccc(C(F)(F)F)c(Cl)c1)C(=O)O; hPhe(4-CF3) = N[C@@H](CCc1ccc(C(F)(F)F)cc1)C(=O)O; NMePhe(4-Cl) = CN[C@@H](Cc1ccc(Cl)cc1)C(=O)O; NMePhe(4-Me) = CN[C@@H](Cc1ccc(C)cc1)C(=O)O; NMedβ3hAla = C[C@H](CC(=O)[*:2])N(C)[*:1]; NMeGly(cPent) = CN[C@H](C(=O)O)C1CCCC1; dβ3hPip = O=C(C[C@H]1CCCCN1[*:1])[*:2]; NMeL = CN[C@@H](CC(C)C)C(=O)O; NMeV = CN[C@H](C(=O)O)C(C)C; NMeA = CN[C@@H](C)C(=O)O; Ac5c = NC1(C(=O)O)CCCC1; Aze = O=C(O)[C@@H]1CCN1; Sar = CNCC(=O)O
Entry rule: numbers only, all in nM.

Which value of IC50 has been reported for CC[C@H](C)[C@@H]1NC(=O)[C@H](CC(C)C)N(C)C(=O)C[C@@H](C)N(C)C(=O)[C@H](C2CCCC2)N(C)C(=O)C2(CCCC2)NC(=O)[C@@H]2CCCN2C(=O)[C@H](CCc2ccc(C(F)(F)F)c(Cl)c2)NC(=O)CN(C)C(=O)[C@H](Cc2ccc(C)cc2)N(C)C(=O)[C@@H]2CCN2C(=O)[C@H](C)N(C)C1=O [Compound 1750] (cyclo([Ac5c][NMeGly(cPent)][NMedβ3hAla][NMeL]I[NMeA][Aze][NMePhe(4-Me)][Sar][hPhe(3-Cl-4-CF3)]P)) in the records?
1.3

Check CC[C@H](C)[C@@H]1NC(=O)[C@H](C(C)C)N(C)C(=O)C[C@H]2CCCCN2C(=O)[C@H](CC(C)C)N(C)C(=O)C2(CCCC2)NC(=O)[C@H](CC(C)C)N(C)C(=O)[C@H](CCc2ccc(C(F)(F)F)cc2)NC(=O)CN(C)C(=O)[C@H](Cc2ccc(Cl)cc2)N(C)C(=O)CN(C)C(=O)CN(C)C1=O [Compound 189] (cyclo([Ac5c][NMeL][dβ3hPip][NMeV]I[Sar][Sar][NMePhe(4-Cl)][Sar][hPhe(4-CF3)][NMeL])) too.
110

----------
Target: protein-protein interaction between Kras and SOS1 (biotin-tagged human Kras loaded with GDP, His-tagged human SOS1) (Homo sapiens (Human), UniProt P01116, G12D)
Assay: Protein-protein interaction inhibition between Kras and SOS1 (KrasG12D-SOS PPI) using AlphaScreen;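 also: kras produced in E. coli, Ni-coupled donor beads and streptavidin acceptor beads, excitation 680 nm with emission detected at 520–620 nm via singlet oxygen transfer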
Assay type: biochemical
Conditions: AlphaScreen; biotin-tagged human Kras loaded with GDP, His-tagged human SOS1; read-out: KRAS G12D-SOS PPI IC50
Numbered stars: 1 amine (or outer) side, 2 acyl side, 3 side chain; on linkers, the order of the positions; unused ones are H or OH. Bridge positions count the residues as written; N and C are the ends. Square brackets hold non-standard residues; d marks the D form. Peptide text beside a SMILES is read from it. * marks the point of attachment. hPhe(3-Cl-4-CF3) = N[C@@H](CCc1ccc(C(F)(F)F)c(Cl)c1)C(=O)O; hPhe(3-F,4-CF3) = N[C@@H](CCc1ccc(C(F)(F)F)c(F)c1)C(=O)O; NMePhe(4-CF3) = CN[C@@H](Cc1ccc(C(F)(F)F)cc1)C(=O)O; X15 = O=C([C@H](CCc1cc(Cl)c(Cl)c(Cl)c1)N[*:1])[*:2]; NMedβ3hAla = C[C@H](CC(=O)[*:2])N(C)[*:1]; NMeGly(cPent) = CN[C@H](C(=O)O)C1CCCC1; NMe3Pal = CN[C@@H](Cc1cccnc1)C(=O)O; NMeCha = CN[C@@H](CC1CCCCC1)C(=O)O; NMehLeu = CN[C@@H](CCC(C)C)C(=O)O; NEtLeu = CCN[C@@H](CC(C)C)C(=O)O; NMeChg = CN[C@H](C(=O)O)C1CCCCC1; NMeI = CC[C@H](C)[C@H](NC)C(=O)O; NMeD = CN[C@@H](CC(=O)O)C(=O)O; NMeL = CN[C@@H](CC(C)C)C(=O)O; NMeV = CN[C@H](C(=O)O)C(C)C; d(β3hA) = C[C@@H](N)CC(=O)O; Morpholide = C1CN(*)CCO1; NMeA = CN[C@@H](C)C(=O)O; Piperidide = C1CCN(*)CC1; Pyrrolidide = C1CCN(*)C1; dNMeA = CN[C@H](C)C(=O)O; Ac5c = NC1(C(=O)O)CCCC1; Aze = O=C(O)[C@@H]1CCN1; Cyclobutyl = C1CC(*)C1; Sar = CNCC(=O)O
Would you mind telling me the reported IC50 of each entry?
Entry rule: numbers only, all in nM.

Which value of IC50 has been reported for CC[C@H](C)[C@@H]1NC(=O)[C@H](C)N(C)C(=O)C[C@@H](C(=O)N2CCCCC2)N(C)C(=O)[C@H](C2CCCCC2)N(C)C(=O)C2(CCCC2)NC(=O)[C@@H]2CCCN2C(=O)[C@H](CCc2cc(Cl)c(Cl)c(Cl)c2)NC(=O)CN(C)C(=O)[C@H](CC2CCCCC2)N(C)C(=O)CN(C)C(=O)CN(C)C1=O [Compound 2059] ([NMeA]I[Sar][Sar][NMeCha][Sar][X15]P[Ac5c][NMeChg][NMeD]-Piperidide; lactam N-11) in the records?
0.96

Check CC[C@H](C)[C@@H]1NC(=O)[C@H](C)N(C)C(=O)C[C@@H](C(=O)N2CCCCC2)N(C)C(=O)[C@H](C(C)C)N(C)C(=O)C2(CCCC2)NC(=O)[C@H](Cc2cccnc2)N(C)C(=O)[C@H](CCc2ccc(C(F)(F)F)c(Cl)c2)NC(=O)CN(C)C(=O)[C@H](CC2CCCCC2)N(C)C(=O)CN(C)C(=O)CN(C)C1=O [Compound 519] ([NMeA]I[Sar][Sar][NMeCha][Sar][hPhe(3-Cl-4-CF3)][NMe3Pal][Ac5c][NMeV][NMeD]-Piperidide; lactam N-11) too.
2

Check CC[C@H](C)[C@@H]1NC(=O)[C@H](CC(C)C)N(C)C(=O)C[C@@H](C(=O)N2CCCC2)N(C)C(=O)[C@H]([C@@H](C)CC)N(C)C(=O)C2(CCCC2)NC(=O)[C@@H]2CCCN2C(=O)[C@H](CCc2ccc(C(F)(F)F)c(Cl)c2)NC(=O)CN(C)C(=O)[C@H](Cc2ccc(C(F)(F)F)cc2)N(C)C(=O)[C@@H]2CCN2C(=O)[C@H](C)NC1=O [Compound 1360] ([NMeL]IA[Aze][NMePhe(4-CF3)][Sar][hPhe(3-Cl-4-CF3)]P[Ac5c][NMeI][NMeD]-Pyrrolidide; lactam N-11) too.
0.97

Check CC[C@H](C)[C@@H]1NC(=O)[C@H](CC(C)C)N(C)C(=O)C[C@@H](C(=O)N2CCOCC2)N(C)C(=O)[C@H]([C@@H](C)CC)N(C)C(=O)C2(CCCC2)NC(=O)[C@@H]2CCCN2C(=O)[C@H](CCc2ccc(C(F)(F)F)c(Cl)c2)NC(=O)CN(C)C(=O)[C@H](Cc2ccc(C(F)(F)F)cc2)N(C)C(=O)[C@@H]2CCN2C(=O)[C@H](C)NC1=O [Compound 1293] ([NMeL]IA[Aze][NMePhe(4-CF3)][Sar][hPhe(3-Cl-4-CF3)]P[Ac5c][NMeI][NMeD]-Morpholide; lactam N-11) too.
0.96

Check CC[C@H](C)[C@@H]1NC(=O)[C@H](CCC(C)C)N(C)C(=O)C[C@@H](C(=O)N(C)C)N(C)C(=O)[C@H](C2CCCC2)N(C)C(=O)C2(CCCC2)NC(=O)[C@@H]2CCCN2C(=O)[C@H](CCc2ccc(C(F)(F)F)c(F)c2)NC(=O)CN(C)C(=O)[C@H](CC2CCCCC2)N(C)C(=O)[C@@H]2CCN2C(=O)[C@H](C)NC1=O [Compound 1292] ([NMehLeu]IA[Aze][NMeCha][Sar][hPhe(3-F,4-CF3)]P[Ac5c][NMeGly(cPent)][NMeD]-NMe2; lactam N-11) too.
2

Check CC(C)C[C@H]1C(=O)N[C@@H](COC2CCC2)C(=O)N(C)[C@@H](C)C(=O)N2CC[C@H]2C(=O)N(C)[C@@H](CC2CCCCC2)C(=O)N(C)CC(=O)N[C@@H](CCc2ccc(C(F)(F)F)c(Cl)c2)C(=O)N2CCC[C@H]2C(=O)NC2(CCCC2)C(=O)N(C)[C@@H](C(C)C)C(=O)N(C)[C@H](C(=O)N2CCCCC2)CC(=O)N1C [Compound 45] ([NMeL]S(Cyclobutyl)[NMeA][Aze][NMeCha][Sar][hPhe(3-Cl-4-CF3)]P[Ac5c][NMeV][NMeD]-Piperidide; lactam N-11) too.
84

Check CC[C@H](C)[C@@H]1NC(=O)[C@H](C)N(C)C(=O)C[C@@H](C)NC(=O)[C@H](C(C)C)N(C)C(=O)C2(CCCC2)NC(=O)[C@@H]2CCCN2C(=O)[C@H](CCc2ccc(C(F)(F)F)c(Cl)c2)NC(=O)[C@@H](C)N(C)C(=O)[C@H](CC2CCCCC2)N(C)C(=O)[C@@H]2CCCN2C(=O)[C@@H]2CCN2C1=O [Compound 2009] (cyclo([Ac5c][NMeV][d(β3hA)][NMeA]I[Aze]P[NMeCha][dNMeA][hPhe(3-Cl-4-CF3)]P)) too.
82

Check CC[C@H](C)[C@@H]1NC(=O)[C@H](CC(C)C)N(CC)C(=O)C[C@@H](C(=O)N2CCOCC2)N(C)C(=O)[C@H](C2CCCC2)N(C)C(=O)C2(CCCC2)NC(=O)[C@@H]2CCCN2C(=O)[C@H](CCc2ccc(C(F)(F)F)c(Cl)c2)NC(=O)CN(C)C(=O)[C@H](C2CCCC2)N(C)C(=O)[C@@H]2CCN2C(=O)[C@H](C)NC1=O [Compound 1140] ([NEtLeu]IA[Aze][NMeGly(cPent)][Sar][hPhe(3-Cl-4-CF3)]P[Ac5c][NMeGly(cPent)][NMeD]-Morpholide; lactam N-11) too.
2

Check CC[C@H](C)[C@@H]1NC(=O)[C@H](CC(C)C)N(C)C(=O)C[C@@H](C)N(C)C(=O)[C@H]([C@@H](C)CC)N(C)C(=O)C2(CCCC2)NC(=O)[C@@H]2CCCN2C(=O)[C@H](CCc2ccc(C(F)(F)F)c(Cl)c2)NC(=O)CN(C)C(=O)[C@H](C2CCCC2)N(C)C(=O)[C@@H]2CCN2C(=O)[C@H](C)N(C)C1=O [Compound 79] (cyclo([Ac5c][NMeI][NMedβ3hAla][NMeL]I[NMeA][Aze][NMeGly(cPent)][Sar][hPhe(3-Cl-4-CF3)]P)) too.
9.3
